meta.source: patent US20230192896A1

Listed here: items and their measured pKd.
# TARGET ENTITY: T1, FX zymogen (UniProt P00742 41-179; P00742 183-488)
# T1 chain 1: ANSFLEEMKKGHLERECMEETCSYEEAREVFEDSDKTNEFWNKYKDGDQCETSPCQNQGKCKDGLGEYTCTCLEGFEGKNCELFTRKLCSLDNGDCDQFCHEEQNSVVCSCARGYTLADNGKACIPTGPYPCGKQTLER
# T1 chain 2: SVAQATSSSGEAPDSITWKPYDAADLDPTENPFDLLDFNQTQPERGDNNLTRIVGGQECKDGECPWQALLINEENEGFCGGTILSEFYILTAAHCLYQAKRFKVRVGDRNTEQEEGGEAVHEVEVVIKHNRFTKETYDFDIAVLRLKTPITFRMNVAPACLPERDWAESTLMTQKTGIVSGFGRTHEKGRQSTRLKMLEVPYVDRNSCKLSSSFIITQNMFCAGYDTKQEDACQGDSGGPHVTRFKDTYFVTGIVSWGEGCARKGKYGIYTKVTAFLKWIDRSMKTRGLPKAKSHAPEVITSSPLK
# PROCEDURE SUMMARY: BLI
Please report pKd as the negative decimal logarithm of the molar concentration, giving only the number.

Worked cases, answers included:
BINDER | PROPERTY | NUMERIC RESULT
BIIB-12-892 (antibody, V domains shown) VH: QVQLVQSGAEVKKPGASVKVSCKASGYTFTSYYMHWVRQAPGQGLEWMGIINPSGGSTSYAQKFQGRVTMTRDTSTSTVYMELSSLRSEDTAVYYCARGLGRRTPTAFDIWGQGTMVTVSS VL: EIVLTQSPATLSLSPGERATLSCRASQSVSSYLAWYQQKPGQAPRLLIYDASNRATGIPARFSGSGSGTDFTLTISSLEPEDFAVYYCQQRLNLPLTFGGGTKVEIK | pKd | 7.48
BIIB-12-1297 (antibody, V domains shown) VH: QVQLVESGGGVVQPGRSLRLSCAASGFTFSSYGMHWVRQAPGKGLEWVAVISYDGSNKYYADSVKGRFTISRDNSKNTLYLQMNSLRAEDTAVYYCARSGGQTHRRSMDVWGQGTTVTVSS VL: EIVLTQSPATLSLSPGERATLSCRASQSVSRYLAWYQQKPGQAPRLLIYDASNRATGIPARFSGSGSGTDFTLTISSLEPEDFAVYYCQQGNNWPPTFGGGTKVEIK | pKd | 7.57

Turning to the following binder.
# input So what does the record say about pKd for BIIB-12-1290 (antibody, V domains shown) VH: QVQLVQSGAEVKKPGASVKVSCKASGYTFTSYYMHWVRQAPGQGLEWMGIINPGGGSTSYAQKFQGRVTMTRDTSTSTVYMELSSLRSEDTAVYYCAREGGRYVRGMDVWGQGTTVTVSS VL: DIQMTQSPSSVSASVGDRVTITCRASQGISSWLAWYQQKPGKAPKLLIYAASSLQSGVPSRFSGSGSGTDFTLTISSLQPEDFATYYCQQGFSFPFTFGGGTKVEIK ?
# output 7.79
